Assayed target: NK1 (Homo sapiens, UniProt P25103)
Sequence (P25103 whole entry): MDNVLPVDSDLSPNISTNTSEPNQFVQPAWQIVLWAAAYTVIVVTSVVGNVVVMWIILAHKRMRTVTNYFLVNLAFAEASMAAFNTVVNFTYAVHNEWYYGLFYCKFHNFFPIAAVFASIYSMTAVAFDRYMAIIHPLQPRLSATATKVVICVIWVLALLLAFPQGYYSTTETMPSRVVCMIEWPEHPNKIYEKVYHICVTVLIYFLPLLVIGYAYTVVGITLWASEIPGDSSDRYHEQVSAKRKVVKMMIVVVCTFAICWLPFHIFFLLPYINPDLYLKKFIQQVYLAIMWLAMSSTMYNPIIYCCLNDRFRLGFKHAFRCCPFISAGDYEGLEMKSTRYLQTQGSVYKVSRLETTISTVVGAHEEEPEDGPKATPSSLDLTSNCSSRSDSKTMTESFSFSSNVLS
Measurement notes: Signal transduction (ST), intracellular Ca++ (FLIPR), NK1 antagonism
Assay type: cell-based
Condition notes: read-out: pIC50 NK1 (converted)
Endpoint name: IC50 (nM)

Consider the worked cases shown below.
O=C(c1cc(C(F)(F)F)cc(C(F)(F)F)c1)N1CC[C@H](N2CCN(C3CCCN(S(=O)(=O)c4ccc(CCOCc5ccccc5)s4)C3)CC2)C[C@H]1Cc1ccccc1 (stereo partly shown): 251
O=C(c1ccco1)N1CCCC(N2CCN([C@H]3CCN(C(=O)c4cc(C(F)(F)F)cc(C(F)(F)F)c4)[C@H](Cc4ccccc4)C3)CC2)C1 (stereo partly shown): 20
O=C(c1cc(C(F)(F)F)cc(C(F)(F)F)c1)N1CC[C@H](N2CCN(C3CCCN(S(=O)(=O)c4ccc(-c5cnco5)s4)C3)CC2)C[C@H]1Cc1ccccc1 (stereo partly shown): 12.6
O=C(c1cc(C(F)(F)F)cc(C(F)(F)F)c1)N1CCC(N2CCN(C3CCCN(S(=O)(=O)c4cc(CCO)cs4)C3)CC2)CC1Cc1ccccc1 (stereo not shown): 15.8
Cc1nc(C)c(S(=O)(=O)N2CCCC(N3CCN([C@H]4CCN(C(=O)c5cc(C(F)(F)F)cc(C(F)(F)F)c5)[C@H](Cc5ccccc5)C4)CC3)C2)s1 (stereo partly shown): 6.31
O=C(c1cc(C(F)(F)F)cc(C(F)(F)F)c1)N1CC[C@H](N2CCN(C3CCCN(S(=O)(=O)c4csc(COCc5ccccc5)c4)C3)CC2)C[C@H]1Cc1ccccc1 (stereo partly shown): 126

(a) N#Cc1ccc(C(=O)N2CCCC(N3CCN([C@H]4CCN(C(=O)c5cc(C(F)(F)F)cc(C(F)(F)F)c5)[C@H](Cc5ccccc5)C4)CC3)C2)cc1 (stereo partly shown)
(b) O=C(c1cc(COCc2ccccc2)cs1)N1CCCC(N2CCN([C@H]3CCN(C(=O)c4cc(C(F)(F)F)cc(C(F)(F)F)c4)[C@H](Cc4ccccc4)C3)CC2)C1 (stereo partly shown)
(c) O=C(c1cc(C(F)(F)F)cc(C(F)(F)F)c1)N1CC[C@H](N2CCN(C3CCCN(S(=O)(=O)c4ccc(-c5ccccn5)s4)C3)CC2)C[C@H]1Cc1ccccc1 (stereo partly shown)
(d) O=C(c1cc(C(F)(F)F)cc(C(F)(F)F)c1)N1CC[C@H](N2CCN(C3CCCN(S(=O)(=O)c4ccccc4Cl)C3)CC2)C[C@H]1Cc1ccccc1 (stereo partly shown)
Sequence the entries by IC50, beginning with the highest number. # list labels per requested ordering
b, c, d, a
(b: 79.4 nM, c: 50.1 nM, d: 20 nM, a: 10 nM)

(I) N#Cc1cccc(C(=O)N2CCCC(N3CCN([C@H]4CCN(C(=O)c5cc(C(F)(F)F)cc(C(F)(F)F)c5)[C@H](Cc5ccccc5)C4)CC3)C2)c1 (stereo partly shown)
(II) O=C(c1cc(C(F)(F)F)cc(C(F)(F)F)c1)N1CC[C@H](N2CCN(C3CCCN(C(=O)C4(O)CC4)C3)CC2)C[C@H]1Cc1ccccc1 (stereo partly shown)
// returns I or II , whichever has the lower IC50 Please indicate the selected item by its label.
II

(P) COc1ccccc1C(=O)N1CCCC(N2CCN([C@H]3CCN(C(=O)c4cc(C(F)(F)F)cc(C(F)(F)F)c4)[C@H](Cc4ccccc4)C3)CC2)C1 (stereo partly shown)
(Q) Cc1csc(C)c1S(=O)(=O)N1CCCC(N2CCN([C@H]3CCN(C(=O)c4cc(C(F)(F)F)cc(C(F)(F)F)c4)[C@H](Cc4ccccc4)C3)CC2)C1 (stereo partly shown)
(R) Cc1occc1C(=O)N1CCCC(N2CCN([C@H]3CCN(C(=O)c4cc(C(F)(F)F)cc(C(F)(F)F)c4)[C@H](Cc4ccccc4)C3)CC2)C1 (stereo partly shown)
(S) O=C(c1cc(C(F)(F)F)cc(C(F)(F)F)c1)N1CC[C@H](N2CCN(C3CCCN(S(=O)(=O)c4ccc(COCc5ccccc5)cc4)C3)CC2)C[C@H]1Cc1ccccc1 (stereo partly shown)
Rank ascending by IC50. # list labels per requested ordering
P, R, Q, S
(P: 15.8 nM, R: 25.1 nM, Q: 39.8 nM, S: 251 nM)
